B1: ZNF263 (parent)
chain: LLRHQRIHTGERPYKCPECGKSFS

- Variants of: B1
- PROCEDURE_SUMMARY: protein stability index of a GFP-peptide fusion (GPS, HEK-293T) (PSI 1-6); higher = more stable;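 further: lentivirally expressed fusions sorted by FACS into six bins by GFP to DsRed ratio, PSI derived from sequencing read proportions per bin multiplied by bin number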
- STATED_CONDITIONS: c terminus: a fixed tail appended
MEASUREMENT_TYPE: protein stability index
Please give the numeric answer without any surrounding text.

Record excerpt, results attached:
                     sequence_data         measurement_type  measured_value
0   LWRHQRIHTGERPYKCPECGKSFS [L2W]  protein stability index            1.86
1  LLRHQRIHTGERPYKCCECGKSFS [P17C]  protein stability index               2

Supply measured protein stability index of LQRHQRIHTGERPYKCPECGKSFS [L2Q] in your reply.
2.57

Supply measured protein stability index of LLRVQRIHTGERPYKCPECGKSFS [H4V] in your reply.
3.58

Supply measured protein stability index of LLRHQRIHTGERPYKCPEVGKSFS [C19V] in your reply.
3.08

Supply measured protein stability index of LLRHQRIHTGERPYKCPECGMSFS [K21M] in your reply.
1.59

Supply measured protein stability index of LLRHQRLHTGERPYKCPECGKSFS [I7L] in your reply.
1.94

Supply measured protein stability index of LLRHQRIHTGERPYKCPICGKSFS [E18I] in your reply.
2.42

Supply measured protein stability index of LLRHQRIHTGERPSKCPECGKSFS [Y14S] in your reply.
1.95

Supply measured protein stability index of LLRHQRIHYGERPYKCPECGKSFS [T9Y] in your reply.
2.56

Supply measured protein stability index of LLRHQRIHTGERPYVCPECGKSFS [K15V] in your reply.
2.4

Supply measured protein stability index of LLRHQRIHTGERPYKDPECGKSFS [C16D] in your reply.
3.46

Supply measured protein stability index of LLRHQEIHTGERPYKCPECGKSFS [R6E] in your reply.
2.74
